Data origin, for the record: PubChem BioAssay

Target: Fibroblast growth factor 10 (Homo sapiens)
Assay: FGF10 binders on small-molecule microarrays, primary screen, biochemical, small-molecule microarray, 635 nm fluorescence (AID 1102)
Settings: FGF10 binding, fluorescence 635 nm, higher = more signal
Think of 0.8 as a floor: if composite z-score stands on it or above, it is satisfied; beneath it, not satisfied.

>  <molecule>
C[N+](C)(C)CCCC[C@@H]1NC(=O)[C@H]2C[C@@H](C(=O)NCCCCCCNC(=O)CS)[C@@H](c3cccc(OCCO)c3)N2C1=O

>  <class_assignment>
not satisfied

$$$$
>  <molecule>
CCCC[C@@H]1C[C@H]1[C@@H](NC(=O)c1ccco1)c1ccccc1C(F)(F)F

>  <class_assignment>
not satisfied

$$$$
>  <molecule>
CC(C)=CCCC(C)=CC(O)C1C=CC2C(=O)N(C)C(=O)C2N1Nc1ccccc1 (stereo not drawn)

>  <class_assignment>
satisfied

$$$$
>  <molecule>
COC(=O)[C@@]1(Cc2ccccc2)[C@H]2c3cc(C(=O)N(C)C)n(Cc4ccsc4Br)c3C[C@H]2CN1C(=O)c1ccccc1

>  <class_assignment>
satisfied

$$$$
>  <molecule>
O=C1OCCC/C=C\[C@H]2OC34C=CCN(Cc5ccccc5)C(=O)[C@H]3N(CCCO)C(=O)[C@@H]4C12 (stereo partly drawn)

>  <class_assignment>
not satisfied

$$$$
>  <molecule>
[N-]=[N+]=NCc1ccccc1[C@@H]1OC(c2ccc(OCCCO)cc2)=N[C@]1(Cc1ccccc1)C(=O)NCC(O)CO (stereo partly drawn)

>  <class_assignment>
satisfied

$$$$
>  <molecule>
CC(C)[Si](C#Cc1ccc(Oc2ccccc2)cc1)(O[Si](C#Cc1ccc(Oc2ccccc2)cc1)(C(C)C)C(C)C)C(C)C

>  <class_assignment>
satisfied

$$$$
